Consider the following variants and their measured protein stability index readings.
B1: DYRK1B (parent)
chain: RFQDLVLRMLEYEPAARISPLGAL

# Variants of: B1
# experiment.summary: protein stability index of a GFP-peptide fusion (GPS, HEK-293T) (PSI 1-6); higher = more stable;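 note: lentivirally expressed fusions sorted by FACS into six bins by GFP to DsRed ratio, PSI derived from sequencing read proportions per bin multiplied by bin number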
# experimental.conditions: c terminus: a fixed tail appended

| variant.id | protein stability index |
| --- | --- |
| L5G | 1.4 |
| R1F | 3.52 |
| V6P | 2.58 |
| Q3P | 2.05 |
| G22D | 2.68 |
| R1M | 3.36 |
| M9L | 2.7 |
| I18L | 2.33 |
| F2G | 2.18 |
| A16E | 1.36 |
| P20W | 3.32 |
| Q3K | 2.03 |
| L24D | 2.29 |
| D4S | 2.88 |
| A23R | 2.45 |
| E13S | 2.48 |
| V6Y | 2.18 |
| R8A | 4.01 |
| V6H | 2.01 |
| R8H | 1.85 |
| L10D | 1.92 |
| A16M | 1.85 |

Values were extracted from the supplement of paper PMC10567573.
